Tested on: human SKM-1 acute myeloid leukemia cells
assay-text: SKM-1 antiproliferation cell-based assay (ATPlite)
experimental-conditions: Homo sapiens, SKM-1, 96 h, SKM-1 antiproliferation assay, 4 days, Table C2
measured-parameter: GI50

- smiles-record: "CC(C)Oc1cc(-c2cc(F)cc(-c3ccnc(N4CCNCC4)c3)c2O)cc(Cl)c1N1CCN(C)C1=O"
  measured-parameter: "GI50"
  val: "300 to 3000 nM"
- smiles-record: "Cn1ccn(-c2ccc(-c3cc(F)cc(-c4ccnc(C5=CCCNC5)c4)c3O)cc2Cl)c1=O"
  measured-parameter: "GI50"
  val: "0.3 to 30 nM"
- smiles-record: "Cc1cc(-c2cc(C)nc(N3CCNCC3)c2)c(O)c(-c2ccc(N3CCN(C)C3=O)c(Cl)c2)c1"
  measured-parameter: "GI50"
  val: "30 to 300 nM"

// switching to the query compound
# GI50 of "Cc1cc(-c2cc(F)cc(-c3ccc(-n4ccn(C)c4=O)c(Cl)c3)c2O)cc(N2CCN(C(C)C)CC2)n1" = 0.3 to 30 nM

====

target-entity: human BRD4 bromodomain II (Homo sapiens)
Construct: human BRD4 bromodomain II [based on Genbank NM_058243, residues 349-460]; host or cells: E. coli
assay-text: Bromodomain binding assay (AlphaScreen), BRD4 BDII
experimental-conditions: AlphaScreen assay, Table C2; read-out: BRD4 BDII IC50
measured-parameter: IC50

- smiles-record: "COc1cc(-c2cccc(-c3ccc(NC(C)=O)c(F)c3)c2O)ccc1NC(C)=O"
  val: "10 to 100 nM"
- smiles-record: "COc1cc(-c2cccc(-c3cc(F)c(NC(C)=O)c(F)c3)c2O)ccc1NC(C)=O"
  val: "10 to 100 nM"

# IC50 of "CN1CC2(C1)CN(c1cc(-c3cc(F)cc(-c4ccc(-n5ccn(C)c5=O)c(Cl)c4)c3O)ccn1)C2" = 1 to 10 nM

# IC50 of "Cn1ccn(-c2ccc(-c3cc(F)cc(-c4ccnc(N5CC6(CC6)[C@](C)(O)C5)c4)c3O)cc2Cl)c1=O" = 0.01 to 1 nM

# IC50 of "Cn1ccn(-c2ccc(-c3cc(F)cc(-c4cc(NC(=O)C5CC5)nc(N5CC[C@H](N)C5)c4)c3O)cc2Cl)c1=O" = 1 to 10 nM

# IC50 of "CC(=O)Nc1ccc(-c2cccc(-c3ccnc(N4CC[C@H](N)C4)c3)c2O)cc1F" = 1 to 10 nM

# IC50 of "O=C1CCCN1c1ccc(-c2cc(Cl)cc(-c3ccnc(N4CCNCC4)c3)c2O)cc1F" = 1 to 10 nM

# IC50 of "O=c1occn1-c1ccc(-c2cc(F)cc(-c3ccnc(N4CCNCC4)c3)c2O)cc1Cl" = 1 to 10 nM

====

System: human SKM-1 acute myeloid leukemia cells
assay-text: SKM-1 antiproliferation cell-based assay (ATPlite)
experimental-conditions: Homo sapiens, SKM-1, 96 h, SKM-1 antiproliferation assay, 4 days, Table C2
Each record here notes measured GI50.

Worked set:
- compound: "CC(C)N1CCN(c2cc(-c3cc(F)cc(-c4ccc(-n5ccn(C)c5=O)c(Cl)c4)c3O)cnc2OC(F)F)CC1 [Example 824]"
  GI50: "0.3 to 30 nM"
- compound: "Cn1ccn(-c2ccc(-c3cc(F)cc(-c4cc(N5CC6CC5CN6)c5cn[nH]c5c4)c3O)cc2Cl)c1=O (stereo not shown) [Example 599]"
  GI50: "30 to 300 nM"
- compound: "Cn1ccn(-c2ccc(-c3cc(F)cc(-c4cc(N5CCNCC5)c5nn[nH]c5c4)c3O)cc2Cl)c1=O [Example 535]"
  GI50: "0.3 to 30 nM"
- compound: "CC(=O)NCc1cc(-c2cccc(-c3ccc(N4CCN(C)C4=O)c(Cl)c3)c2O)cc(N2CCNCC2)c1 [Example 327]"
  GI50: "30 to 300 nM"
- compound: "CO[C@@H]1COC(=O)N1c1ccc(-c2cc(F)cc(-c3ccnc(N4CCNCC4)c3)c2O)cc1Cl [Example 507]"
  GI50: "300 to 3000 nM"

# GI50 of Cc1cc(-c2ccc(-n3ccn(C)c3=O)c(Cl)c2)c(O)c(-c2cc(N3CCN[C@H](C)C3)c3nccnc3c2)c1 [Example 574] = 0.3 to 30 nM

# GI50 of CN1CCN(c2ccc(-c3cc(F)cc(-c4cc(N5CCNCC5)c5cn[nH]c5c4)c3O)cc2Cl)C1=O [Example 458] = 0.3 to 30 nM

====

target-entity: human BRD4 bromodomain II (Homo sapiens, UniProt O60885)
Construct: human BRD4 bromodomain II [based on Genbank NM_058243, residues 349-460]; host or cells: E. coli
assay-text: Bromodomain binding assay (AlphaScreen), BRD4 BDII
experimental-conditions: AlphaScreen assay, Table C2; read-out: BRD4 BDII IC50
measured-parameter: IC50

- molecule: "Cn1ccn(-c2ccc(-c3cc(F)cc(-c4ccc(C(F)F)c(N5CCN(C(C)(C)C)CC5)c4)c3O)cc2Cl)c1=O"
  target-entity: "human BRD4 bromodomain II (Homo sapiens, UniProt O60885)"
  measured-parameter: "IC50"
  val: "0.01 to 1 nM"
- molecule: "CC(=O)N1CCC(=O)Nc2cc(-c3cccc(-c4cc(N5CCNCC5)no4)c3O)ccc21 [Example 29, 2,2,2-trifluoroacetate]"
  target-entity: "human BRD4 bromodomain II (Homo sapiens, UniProt O60885)"
  measured-parameter: "IC50"
  val: "> 100 nM"
- molecule: "CC(=O)Nc1ccc(-c2cccc(-c3ccc(NC(C)=O)c(F)c3)c2O)cc1C"
  target-entity: "human BRD4 bromodomain II (Homo sapiens, UniProt O60885)"
  measured-parameter: "IC50"
  val: "10 to 100 nM"

# IC50 of "CC(C)[C@@H]1CN(c2cc(-c3cc(F)cc(-c4ccc(-n5ccn(C)c5=O)c(Cl)c4)c3O)ccn2)CCN1" = 0.01 to 1 nM

# IC50 of "CN1CCN(c2ccc(-c3cccc(-c4cncc(N5CCC(N)CC5)c4)c3O)cc2Cl)C1=O" = 1 to 10 nM

# IC50 of "Cn1ccn(-c2ccc(-c3cc(F)cc(-c4ccnc(N5CC6(CC6)[C@@](C)(O)C5)c4)c3O)cc2Cl)c1=O" = 0.01 to 1 nM

# IC50 of "C[C@H]1CCCN(c2cc(-c3cc(F)cc(-c4ccc(-n5ccn(C)c5=O)c(Cl)c4)c3O)ccn2)C1" = 10 to 100 nM

====

target-entity: human BRD4 bromodomain II (Homo sapiens, UniProt O60885)
Construct: human BRD4 bromodomain II [based on Genbank NM_058243, residues 349-460]; host or cells: E. coli
assay-text: Bromodomain binding assay (AlphaScreen), BRD4 BDII
experimental-conditions: AlphaScreen assay, Table C2; read-out: BRD4 BDII IC50
pIC50: −log10 of the molar value.
measured-parameter: pIC50

Worked set:
- molecule: "CN1CCN(c2ccc(-c3cc(C#N)cc(-c4ccnc(N5CCNCC5)c4)c3O)cc2Cl)C1=O"
  target-entity: "human BRD4 bromodomain II (Homo sapiens, UniProt O60885)"
  val: "< 7.00"
- molecule: "Cn1ccn(-c2ccc(-c3cc(F)cc(-c4ccnc(N5CCNC(c6ccccc6)C5)c4)c3O)cc2Cl)c1=O (stereo not shown)"
  target-entity: "human BRD4 bromodomain II (Homo sapiens, UniProt O60885)"
  val: "9.00 to 11.00"
- molecule: "Cc1cc(-c2ccnc(N3CCNCC3)c2)c(O)c(-c2ccc(-n3ccn(C)c3=O)c(Cl)c2)c1"
  target-entity: "human BRD4 bromodomain II (Homo sapiens, UniProt O60885)"
  val: "9.00 to 11.00"

// switching to the query molecule
# pIC50 of "O=C1CCCN1c1c(Cl)cc(-c2cccc(-c3cc(N4CCNCC4)no3)c2O)cc1Cl" = < 7.00

====

Tested on: human SKM-1 acute myeloid leukemia cells
assay-text: SKM-1 antiproliferation cell-based assay (ATPlite)
experimental-conditions: Homo sapiens, SKM-1, 96 h, SKM-1 antiproliferation assay, 4 days, Table C2
measured-parameter: GI50

Worked set:
- compound: "CN1CCN(c2ccc(-c3cc(F)cc(-c4cnc(CO)c(N5CCNCC5)c4)c3O)cc2Cl)C1=O [Example 387]"
  val: "0.03 to 0.3 µM"
- compound: "Cn1ccn(-c2ccc(-c3cc(F)cc(-c4ccnc(N5CC6CCC6(N)C5)c4)c3O)cc2Cl)c1=O (stereo not shown) [Example 806]"
  val: "0.0003 to 0.03 µM"
- compound: "Cn1ccn(-c2ccc(-c3cc(F)cc(-c4cc(N5CCNCC5)c5nc[nH]c5c4)c3O)cc2Cl)c1=O [Example 504]"
  val: "0.0003 to 0.03 µM"

// switching to the query compound
# GI50 of CSc1cc(-c2cc(F)cc(-c3cnc(SC)c(N4CCN(C(C)C)CC4)c3)c2O)ccc1-n1ccn(C)c1=O [Example 818] = 0.03 to 0.3 µM

Reference source: patent US20250179059A1
